Provide the recorded pIC50 for the entries that follow.
Schema: pIC50 number; meaning minus log10 of the concentration expressed in molar units.

Report pIC50 under test system HDAC5 (Homo sapiens (Human), UniProt Q9UQL6) for Cc1nc(Cl)cnc1COc1ccc(-c2noc(C(F)(F)F)n2)cn1 .
5.96

Specify the recorded pIC50 for Fc1cc(COc2cccc3[nH]ncc23)ccc1-c1noc(C(F)(F)F)n1 , system: HDAC5 (Homo sapiens (Human), UniProt Q9UQL6).
Sequence (Q9UQL6 656-1122): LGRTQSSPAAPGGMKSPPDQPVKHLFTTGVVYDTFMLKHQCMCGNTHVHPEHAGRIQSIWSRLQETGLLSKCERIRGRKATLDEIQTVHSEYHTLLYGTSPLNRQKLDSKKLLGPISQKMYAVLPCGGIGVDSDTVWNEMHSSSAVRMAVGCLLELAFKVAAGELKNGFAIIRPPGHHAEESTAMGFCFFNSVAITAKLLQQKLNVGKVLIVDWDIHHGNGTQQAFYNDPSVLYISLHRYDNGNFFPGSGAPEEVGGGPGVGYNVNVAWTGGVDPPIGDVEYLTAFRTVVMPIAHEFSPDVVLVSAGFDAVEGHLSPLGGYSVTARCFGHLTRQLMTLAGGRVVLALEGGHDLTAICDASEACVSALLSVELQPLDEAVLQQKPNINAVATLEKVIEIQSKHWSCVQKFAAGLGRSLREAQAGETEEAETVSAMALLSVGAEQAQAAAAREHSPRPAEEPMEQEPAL
7.07

Find pIC50 for O=C(CN1CCOCC1)NC(Cc1ccc(-c2noc(C(F)(F)F)n2)cn1)c1cccc(C(F)(F)F)c1 (racemic) on HDAC5 (Homo sapiens (Human), UniProt Q9UQL6) and write it down.
5.96

Fill in: pIC50 on HDAC5 (Homo sapiens (Human), UniProt Q9UQL6), entry Fc1cc(-c2noc(C(F)(F)F)n2)ccc1COc1ccccc1
5.96

Look up and report pIC50, with HDAC5 (Homo sapiens (Human), UniProt Q9UQL6) as system, for COc1ncccc1OCc1ccc(-c2noc(C(F)(F)F)n2)cn1
6.51

---

recordedMetric: IC50 (µM)
Give the value in µM but do not write µM after it.

Find the measured IC50 of Fc1cc(-c2noc(C(F)(F)F)n2)ccc1COc1ccccc1 with UniProt Q13547 as test system.
15

Give IC50 only, for Cc1noc([C@@H]2CCC(=O)N2c2ccc(-c3noc(C(F)(F)F)n3)c(F)c2F)n1 , using UniProt Q13547 data.
2

Consider the compound O=C(c1cncnc1)N(Cc1ccc(-c2noc(C(F)(F)F)n2)cc1)c1cccc(C(F)(F)F)c1 tested on UniProt Q13547; state its IC50.
0.67

Lab note: record IC50 of O=C([C@@H]1CCC(=O)N1c1cc(F)c(-c2noc(C(F)(F)F)n2)cc1F)N1CCCc2ccccc21 tested on UniProt Q13547.
4.4

GET IC50 | system: UniProt Q13547 | item: Cn1cnc2cc(COc3nccc(-c4noc(C(F)(F)F)n4)c3Cl)ccc21
1.7

# lookup: UniProt Q13547 IC50, key = Fc1cc(F)c(OCc2ccc(-c3noc(C(F)(F)F)n3)c(F)c2)cn1
45

Please report the measured IC50 for Cc1nccn1C(C)C(=O)N(Cc1ccc(-c2noc(C(F)(F)F)n2)cn1)c1cccc(F)c1 (racemic) tested on UniProt Q13547.
0.43

Provide measured IC50 on UniProt Q13547 for FC(F)(F)c1nc(-c2ccc(CNc3c[nH]nn3)nc2)no1 please.
4.3

---

biological target: UniProtKB Q13547
The label is fulfilled for IC50 below 4 µM and not fulfilled for IC50 equal to or exceeding 4 µM.

Hello, is IC50 of the following compound strictly smaller than 4 µM? Cn1cc(COc2nccc(-c3noc(C(F)(F)F)n3)c2Cl)nn1
not fulfilled

I'd appreciate it if you could check whether O=C(NCc1ccc(-c2noc(C(F)(F)F)n2)cc1)c1cc(N2CCOCC2)ccn1 has IC50 smaller than 4 µM.
fulfilled

Confirm or reject: IC50 of O=C1COC[C@@H](c2ccccc2)N1c1ccc(-c2noc(C(F)(F)F)n2)nn1 lies strictly below 4 µM
not fulfilled

Please check: IC50 for Fc1cc(COc2cc[nH]n2)ccc1-c1noc(C(F)(F)F)n1 , strictly under 4 µM or not?
fulfilled

Quick check: does CCCC(=O)NC(Cc1ccc(-c2noc(C(F)(F)F)n2)cn1)c1cccc(C(F)(F)F)c1 (racemic) have IC50 under 4 µM?
fulfilled

Check if IC50 falls below 4 µM for CC(=O)NCCC(=O)N(Cc1ccc(-c2noc(C(F)(F)F)n2)cc1)c1cccc(C(F)(F)F)c1 .
fulfilled

Strictly below 4 µM in IC50? O=C1COC[C@@H](c2nc(-c3ccccn3)no2)N1c1ccc(-c2noc(C(F)(F)F)n2)cc1
fulfilled

# TODO verify IC50 < 4 µM strictly for this compound: CC(C)(C)OC(=O)N1C[C@@H](c2cc(F)cc(F)c2)N(c2ccc(-c3noc(C(F)(F)F)n3)cn2)C(=O)C1C1CCOCC1 (some centres unmarked)
not fulfilled

---

The next entries give measured IC50 for HDAC1 (Homo sapiens (Human)).
Response body: numeric value in nM, unit text excluded.

Supply recorded IC50 for O=C1COC[C@@H](c2ccccc2)N1c1ccc(-c2noc(C(F)(F)F)n2)c(F)c1 here.
480

Give the reported value of IC50 for this record: FC(F)(F)Cn1nc(COc2cc(-c3noc(C(F)(F)F)n3)ccn2)cc1C1CC1
920

Give IC50 for the following compound: O=C(CC1CNCCO1)N(Cc1ccc(-c2noc(C(F)(F)F)n2)cc1)c1cccc(C(F)(F)F)c1 (racemic)
860

Quickly give me recorded IC50 for O=C1CC(NCc2ccc(-c3noc(C(F)(F)F)n3)cn2)CCN1 (racemic)
5400

Give recorded IC50. Cn1c([C@@H]2CCC(=O)N2c2ccc(-c3noc(C(F)(F)F)n3)cc2)nc2ccccc21
2000

Read off the recorded IC50 for Cc1cncnc1OCc1ccc(-c2noc(C(F)(F)F)n2)cn1
2200

Give IC50 for Cc1nc(C)n(CC(=O)N(Cc2ccc(-c3noc(C(F)(F)F)n3)cc2)c2cccc(C(F)(F)F)c2)n1
1400

Kindly indicate its recorded IC50. Item: Fc1c(-c2noc(C(F)(F)F)n2)ccnc1OCc1nc(C2CC2)no1
1500

---

I'd be grateful if you could share measured pIC50 for these entries.
target: HDAC8 (Homo sapiens (Human), UniProt Q9BY41)
Sequence (Q9BY41 whole entry): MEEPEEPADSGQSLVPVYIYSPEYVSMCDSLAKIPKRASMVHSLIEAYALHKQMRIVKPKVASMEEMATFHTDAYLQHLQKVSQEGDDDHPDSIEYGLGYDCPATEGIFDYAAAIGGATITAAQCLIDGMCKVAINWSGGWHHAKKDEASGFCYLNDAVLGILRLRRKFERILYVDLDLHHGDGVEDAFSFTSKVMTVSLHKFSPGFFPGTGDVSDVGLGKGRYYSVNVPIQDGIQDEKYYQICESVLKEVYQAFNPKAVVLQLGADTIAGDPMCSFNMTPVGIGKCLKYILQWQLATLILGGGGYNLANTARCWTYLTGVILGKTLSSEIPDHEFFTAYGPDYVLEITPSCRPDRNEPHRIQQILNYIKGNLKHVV
Worth noting: pIC50 values are minus log10 of concentrations stated in mol/L.

Supply pIC50 measured with HDAC8 (Homo sapiens (Human), UniProt Q9BY41) for Cn1nccc1OCc1ccc(-c2noc(C(F)(F)F)n2)c(F)c1 .
5.32

Supply pIC50 measured with HDAC8 (Homo sapiens (Human), UniProt Q9BY41) for CC(C)c1ncncc1C(=O)N(Cc1ccc(-c2noc(C(F)(F)F)n2)cn1)c1cccc(F)c1 .
5.51

Supply pIC50 measured with HDAC8 (Homo sapiens (Human), UniProt Q9BY41) for FC(F)(F)c1nc(-c2ccc(CNc3cncnc3)nc2)no1 .
6.02

Fetch value of pIC50 on HDAC8 (Homo sapiens (Human), UniProt Q9BY41) for Fc1cc(COc2cccc3[nH]nnc23)ccc1-c1noc(C(F)(F)F)n1 .
6.14

// fetch pIC50 for O=C1OC[C@@H](c2ccccc2)N1c1ccc(-c2noc(C(F)(F)F)n2)c(F)c1 ; system: HDAC8 (Homo sapiens (Human), UniProt Q9BY41)
5.35

Report measured pIC50 on HDAC8 (Homo sapiens (Human), UniProt Q9BY41); entry: CN1CC(C(=O)N(Cc2ccc(-c3noc(C(F)(F)F)n3)cn2)c2cccc(F)c2)CCC1=O (racemic)
5.59

Report measured pIC50 on HDAC8 (Homo sapiens (Human), UniProt Q9BY41); entry: O=C1COC[C@H](CNCc2ccc(-c3noc(C(F)(F)F)n3)cn2)N1
5.62

Provide the reported pIC50 (system: HDAC8 (Homo sapiens (Human), UniProt Q9BY41)) for Cc1noc([C@@H]2CCC(=O)N2c2ccc(-c3noc(C(F)(F)F)n3)cc2)n1
5.85

Write down the reported pIC50 (system: HDAC8 (Homo sapiens (Human), UniProt Q9BY41)) of O=C1COC[C@@H](c2ccccc2)N1c1cnc(-c2noc(C(F)(F)F)n2)cn1
5.21

State the measured pIC50 (HDAC8 (Homo sapiens (Human), UniProt Q9BY41)) of FC(F)(F)c1nc(-c2ccc(CNCC3CN(c4ccccc4)CCO3)nc2)no1 (racemic)
5.77

Provide measured pIC50 on HDAC8 (Homo sapiens (Human), UniProt Q9BY41) for CC1(C)CCCN1C(=O)[C@@H]1CCC(=O)N1c1cc(F)c(-c2noc(C(F)(F)F)n2)cc1F please.
4.35

Return reported pIC50 for target or system HDAC8 (Homo sapiens (Human), UniProt Q9BY41), item CN1CCN(c2ccc(-c3noc(C(F)(F)F)n3)cn2)[C@@H](c2ccccc2)C1 .
5.68

Fetch value of pIC50 on HDAC8 (Homo sapiens (Human), UniProt Q9BY41) for FC(F)(F)c1nc(-c2cnc(COc3ccc4ccccc4n3)nc2)no1 .
4.35

Write down the reported pIC50 (system: HDAC8 (Homo sapiens (Human), UniProt Q9BY41)) of COCCN1Cc2ccccc2N(Cc2ccc(-c3noc(C(F)(F)F)n3)cn2)C1=O
5.64

Provide measured pIC50 on HDAC8 (Homo sapiens (Human), UniProt Q9BY41) for COc1ccccc1C1CCC(=O)N1c1ccc(-c2noc(C(F)(F)F)n2)cc1F (racemic) please.
5.10

State pIC50 (HDAC8 (Homo sapiens (Human), UniProt Q9BY41)) of CCCC(=O)NC(Cc1ccc(-c2noc(C(F)(F)F)n2)cn1)c1cccc(C(F)(F)F)c1 (racemic) .
4.35

# assay system HDAC8 (Homo sapiens (Human), UniProt Q9BY41): give pIC50 of CC(C)C(=O)NC(Cc1ccc(-c2noc(C(F)(F)F)n2)cn1)c1cccc(C(F)(F)F)c1 (racemic)
4.35

Give pIC50 for this entry on HDAC8 (Homo sapiens (Human), UniProt Q9BY41): Fc1ccc2ccc(OCc3ccc(-c4noc(C(F)(F)F)n4)cn3)nc2c1
4.35

Provide the reported pIC50 (system: HDAC8 (Homo sapiens (Human), UniProt Q9BY41)) for OCc1ccnc(NCc2ccc(-c3noc(C(F)(F)F)n3)cc2)n1
5.49

Provide the reported pIC50 (system: HDAC8 (Homo sapiens (Human), UniProt Q9BY41)) for Cc1nonc1CC(=O)N(Cc1ccc(-c2noc(C(F)(F)F)n2)cn1)c1cccc(F)c1
5.46

Consider the compound Cc1cc(OCc2ccc(-c3noc(C(F)(F)F)n3)c(F)c2)cc(C)n1 tested on HDAC8 (Homo sapiens (Human), UniProt Q9BY41); state its pIC50.
5.28

Fetch value of pIC50 on HDAC8 (Homo sapiens (Human), UniProt Q9BY41) for FC(F)(F)c1nc(-c2ccc(N3CCOCC3c3cccnc3)nc2)no1 (stereo not drawn) [Example 143] .
5.55

Write down measured pIC50 (HDAC8 (Homo sapiens (Human), UniProt Q9BY41)) for this compound. CC(C)(C)OC(=O)C1COCC(=O)N1c1ccc(-c2noc(C(F)(F)F)n2)c(F)c1 (stereo not drawn)
5.26

Output reported pIC50 of the compound O=C1CCC(c2ccccc2F)N1c1ccc(-c2noc(C(F)(F)F)n2)cc1F (racemic) on HDAC8 (Homo sapiens (Human), UniProt Q9BY41).
5.60

Fetch value of pIC50 on HDAC8 (Homo sapiens (Human), UniProt Q9BY41) for FC(F)(F)c1nc(-c2ccc(N3CCCC3c3ccncc3)nc2)no1 (racemic) .
5.74

Provide HDAC8 (Homo sapiens (Human), UniProt Q9BY41) pIC50 reading for O=C1CCC(NCc2ccc(-c3noc(C(F)(F)F)n3)cn2)c2ccccc2N1 (racemic) [Example 374] .
5.16

Fill in pIC50 for O=C1CCC(c2ccc(-c3noc(C(F)(F)F)n3)cc2)N1c1ccccc1F (racemic) [Example 320] tested with HDAC8 (Homo sapiens (Human), UniProt Q9BY41).
4.92

// output pIC50; input Cc1cc(NCc2ccc(-c3noc(C(F)(F)F)n3)cn2)on1 ; system HDAC8 (Homo sapiens (Human), UniProt Q9BY41)
5.85

Name the value of pIC50 reported for O=C1CCC(c2ccc(-c3noc(C(F)(F)F)n3)cc2)N1c1ccccc1F (stereo not drawn) [Example 329] when tested on HDAC8 (Homo sapiens (Human), UniProt Q9BY41).
5.10

# return pIC50 for FC(F)(F)c1nc(-c2ccc(CNc3cc4ccccn4n3)nc2)no1 , test system: HDAC8 (Homo sapiens (Human), UniProt Q9BY41)
5.74

State pIC50 (HDAC8 (Homo sapiens (Human), UniProt Q9BY41)) of CC(C)NC(=O)OCc1ccc(-c2noc(C(F)(F)F)n2)cn1 .
5.74

Retrieve pIC50 on HDAC8 (Homo sapiens (Human), UniProt Q9BY41); query O=C1NC(=O)[C@]2(CC[C@H](NCc3ccc(-c4noc(C(F)(F)F)n4)cn3)CC2)N1
5.41

Name the value of pIC50 reported for O=C1CCC(c2ccccc2)N1c1ccc(-c2noc(C(F)(F)F)n2)c(F)c1 (stereo not drawn) when tested on HDAC8 (Homo sapiens (Human), UniProt Q9BY41).
5.44
